# test: Binding affinity to human IgG assessed as dissociation constant by SPR analysis
Bridge positions count the residues as written; N and C are the ends. Square brackets hold non-standard residues; d marks the D form. Peptide text beside a SMILES is read from it. ξ: configuration not given here. ξ2Pal = NC(Cc1ccccn1)C(=O)O; ξDab = NCCC(N)C(=O)O
parameter measured: log10(Kd) (log10 of the value in nM)

molecule="CC(=O)N[C@@H](CC(=O)O)C(=O)N[C@H]1CSSC[C@@H](C(=O)N[C@H](C(=O)N[C@@H](Cc2ccccc2)C(=O)N[C@@H](Cc2c[nH]c3ccccc23)C(N)=O)[C@@H](C)O)NC(=O)[C@H](Cc2c[nH]c3ccccc23)NC(=O)[C@H](C(C)C)NC(=O)[C@H](CC(C)C)NC(=O)[C@H](CCC(=O)O)NC(=O)CNC(=O)[C@H](CCCCN)NC(=O)[C@H](Cc2cnc[nH]2)NC(=O)[C@H](Cc2ccc(O)cc2)NC(=O)[C@H](C)NC1=O (Ac-DCAYHKGELVWCTFW-NH2; disulfide 2-12)" result=3.09
molecule="CC(=O)N[C@@H](CC(=O)O)C(=O)N[C@H]1CSSC[C@@H](C(=O)N[C@H](C(=O)N[C@@H](Cc2ccccc2)C(=O)NC(CCN)C(N)=O)[C@@H](C)O)NC(=O)[C@H](Cc2c[nH]c3ccccc23)NC(=O)[C@H](C(C)C)NC(=O)[C@H](CC(C)C)NC(=O)[C@H](CCC(=O)O)NC(=O)CNC(=O)[C@H](CCCCN)NC(=O)[C@H](Cc2cnc[nH]2)NC(=O)[C@H](Cc2ccc(O)cc2)NC(=O)[C@H](C)NC1=O (stereo partly specified) (Ac-DCAYHKGELVWCTF[ξDab]-NH2; disulfide 2-12)" result=3.01
molecule=CC(=O)N[C@@H](CC(=O)O)C(=O)N[C@H]1CSSC[C@@H](C(=O)N[C@H](C(=O)N[C@@H](Cc2ccccc2)C(=O)N[C@H](Cc2ccccn2)C(N)=O)[C@@H](C)O)NC(=O)[C@H](Cc2c[nH]c3ccccc23)NC(=O)[C@H](C(C)C)NC(=O)[C@H](CC(C)C)NC(=O)[C@H](CCC(=O)O)NC(=O)CNC(=O)[C@H](CC(C)C)NC(=O)[C@H](Cc2cnc[nH]2)NC(=O)[C@H](Cc2ccc(O)cc2)NC(=O)[C@H](C)NC1=O result=1.36
molecule="CC(=O)N[C@@H](CC(=O)O)C(=O)N[C@H]1CSSC[C@@H](C(=O)N[C@H](C(=O)N[C@@H](Cc2ccccc2)C(=O)N[C@@H](Cc2ccccc2)C(N)=O)[C@@H](C)O)NC(=O)[C@H](Cc2c[nH]c3ccccc23)NC(=O)[C@H](C(C)C)NC(=O)[C@H](CC(C)C)NC(=O)[C@H](CCC(=O)O)NC(=O)CNC(=O)[C@H](CCCCN)NC(=O)[C@H](Cc2cnc[nH]2)NC(=O)[C@H](Cc2ccc(O)cc2)NC(=O)[C@H](C)NC1=O (Ac-DCAYHKGELVWCTFF-NH2; disulfide 2-12)" result=2.70
molecule="CC(=O)N[C@@H](CC(=O)O)C(=O)N[C@H]1CSSC[C@@H](C(=O)N[C@H](C(=O)N[C@@H](Cc2ccccc2)C(=O)NC(Cc2ccccn2)C(=O)O)[C@@H](C)O)NC(=O)[C@H](Cc2c[nH]c3ccccc23)NC(=O)[C@H](C(C)C)NC(=O)[C@H](CC(C)C)NC(=O)[C@H](CCC(=O)O)NC(=O)CNC(=O)[C@H](CC(C)C)NC(=O)[C@H](Cc2cnc[nH]2)NC(=O)[C@H](Cc2ccc(O)cc2)NC(=O)[C@H](C)NC1=O (stereo partly specified) (Ac-DCAYHLGELVWCTF[ξ2Pal]-OH; disulfide 2-12)" result=0.39
molecule=CC(=O)N[C@@H](CC(=O)O)C(=O)N[C@H]1CSSC[C@@H](C(=O)N[C@H](C(=O)N[C@@H](Cc2ccccc2)C(=O)N[C@H](Cc2ccccn2)C(N)=O)[C@@H](C)O)NC(=O)[C@H](Cc2c[nH]c3ccccc23)NC(=O)[C@H](C(C)C)NC(=O)[C@H](CC(C)C)NC(=O)[C@H](CCC(=O)O)NC(=O)CNC(=O)[C@H](CCCCN)NC(=O)[C@H](Cc2cnc[nH]2)NC(=O)[C@H](Cc2ccc(O)cc2)NC(=O)[C@H](C)NC1=O result=2.76
